Just for reference, paper PMC9516332 is where these values come from.

System: 134 cancer cell lines
Assay: Cell viability assay (ATPlite, 72 hours), IC50 on cancer cell line panel
Details: read-out: IC50 in cell proliferation assay, cell line PA-1
pIC50: −log10 of the molar value.
Mark Not satisfied for pIC50 values under 6, and Satisfied for everything at or above.

Qu. Is pIC50 for CCc1nc(C(N)=O)c(Nc2ccc(N3CCC(N4CCN(C)CC4)CC3)c(OC)c2)nc1NC1CCOCC1 [gilteritinib] at or above 6?
Ans. Satisfied

Qu. Is pIC50 for CCN1CCN(c2ccc(Nc3cc(N(C)C(=O)Nc4c(Cl)c(OC)cc(OC)c4Cl)ncn3)cc2)CC1 [infigratinib] at or above 6?
Ans. Not satisfied

Qu. Is pIC50 for FC(F)(F)c1ccc(CNc2ccc(Cc3c[nH]c4ncc(Cl)cc34)cn2)cn1 [pexidartinib] at or above 6?
Ans. Not satisfied

Qu. Is pIC50 for Cc1nc(NC(=O)N2CCC[C@H]2C(N)=O)sc1-c1ccnc(C(C)(C)C(F)(F)F)c1 [alpelisib] at or above 6?
Ans. Not satisfied

Qu. Is pIC50 for Cc1cc(Nc2ncc(Cl)c(Nc3ccccc3S(=O)(=O)C(C)C)n2)c(OC(C)C)cc1C1CCNCC1 [ceritinib] at or above 6?
Ans. Not satisfied

Qu. Is pIC50 for CC(C)(C)c1nc(-c2cccc(NS(=O)(=O)c3c(F)cccc3F)c2F)c(-c2ccnc(N)n2)s1 [dabrafenib] at or above 6?
Ans. Not satisfied

----------
Biological target: panel of 255 wild-type kinases (Homo sapiens, UniProt P35916)
Sequence (P35916 25-1363): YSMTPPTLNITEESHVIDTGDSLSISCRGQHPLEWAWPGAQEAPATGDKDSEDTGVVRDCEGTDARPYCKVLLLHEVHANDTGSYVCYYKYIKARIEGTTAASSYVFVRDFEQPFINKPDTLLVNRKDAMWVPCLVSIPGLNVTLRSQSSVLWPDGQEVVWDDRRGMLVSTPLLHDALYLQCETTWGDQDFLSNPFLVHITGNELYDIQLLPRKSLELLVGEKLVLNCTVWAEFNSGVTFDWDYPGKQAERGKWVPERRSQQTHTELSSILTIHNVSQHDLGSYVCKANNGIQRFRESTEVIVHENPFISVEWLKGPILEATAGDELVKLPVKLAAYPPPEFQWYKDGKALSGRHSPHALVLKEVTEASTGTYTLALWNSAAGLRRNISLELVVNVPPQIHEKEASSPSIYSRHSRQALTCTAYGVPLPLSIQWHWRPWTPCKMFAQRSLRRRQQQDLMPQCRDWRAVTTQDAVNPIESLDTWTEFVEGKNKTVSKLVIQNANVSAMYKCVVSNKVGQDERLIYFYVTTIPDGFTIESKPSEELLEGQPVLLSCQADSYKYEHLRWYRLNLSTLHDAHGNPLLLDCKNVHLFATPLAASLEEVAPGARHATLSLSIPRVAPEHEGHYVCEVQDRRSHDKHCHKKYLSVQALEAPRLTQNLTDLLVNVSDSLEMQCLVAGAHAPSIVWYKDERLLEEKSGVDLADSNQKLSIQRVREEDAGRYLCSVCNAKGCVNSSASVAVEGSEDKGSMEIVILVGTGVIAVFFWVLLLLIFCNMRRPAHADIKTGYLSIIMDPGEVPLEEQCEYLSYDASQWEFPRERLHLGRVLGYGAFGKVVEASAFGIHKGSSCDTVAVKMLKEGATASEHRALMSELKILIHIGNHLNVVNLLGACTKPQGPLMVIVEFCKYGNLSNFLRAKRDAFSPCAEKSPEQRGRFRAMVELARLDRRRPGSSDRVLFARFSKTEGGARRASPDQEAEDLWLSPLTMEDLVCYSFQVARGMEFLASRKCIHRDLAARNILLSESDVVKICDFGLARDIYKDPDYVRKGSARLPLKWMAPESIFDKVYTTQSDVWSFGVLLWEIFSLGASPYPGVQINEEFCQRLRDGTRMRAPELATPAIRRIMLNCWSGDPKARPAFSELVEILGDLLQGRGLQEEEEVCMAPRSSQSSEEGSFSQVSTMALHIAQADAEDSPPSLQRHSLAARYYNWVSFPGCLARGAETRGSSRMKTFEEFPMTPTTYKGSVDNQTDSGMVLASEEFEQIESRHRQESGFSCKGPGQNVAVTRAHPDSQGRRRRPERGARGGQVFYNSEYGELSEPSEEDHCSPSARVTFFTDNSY
Assay: Kinase panel profiling at 1 µmol/L (MSA or IMAP), percentage inhibition
Format: biochemical
Settings: kinase FLT4; 1 µmol/L single concentration; read-out: %-inhibition at 1 µmol/L, FLT4
Task for the reader: assign each of the following compounds its reported inhibition at 1 µM.
Number only, in %; omit the unit.

Qu. Quick one: inhibition at 1 µM of CCc1nc(C(N)=O)c(Nc2ccc(N3CCC(N4CCN(C)CC4)CC3)c(OC)c2)nc1NC1CCOCC1 [gilteritinib] ?
Ans. 99

Qu. Quick one: inhibition at 1 µM of COc1cc2ncnc(Nc3ccc(F)c(Cl)c3)c2cc1NC(=O)/C=C/CN1CCCCC1 [dacomitinib] ?
Ans. 34

Qu. Quick one: inhibition at 1 µM of C=CC(=O)N1CCC([C@@H]2CCNc3c(C(N)=O)c(-c4ccc(Oc5ccccc5)cc4)nn32)CC1 [zanubrutinib] ?
Ans. 6.34

Qu. Quick one: inhibition at 1 µM of COc1ccc(CN2C3CC2CN(c2ccc(-c4cc(OCC(C)(C)O)cn5ncc(C#N)c45)cn2)C3)cn1 [selpercatinib] ?
Ans. 101

----------
Task for the reader: assign each of the following molecules its reported inhibition at 1 µM.
Target: panel of 255 wild-type kinases (Homo sapiens, UniProt Q04912)
Assay: Kinase panel profiling at 1 µmol/L (MSA or IMAP), percentage inhibition
Type: biochemical
Conditions: kinase RON; 1 µmol/L single concentration; read-out: %-inhibition at 1 µmol/L, RON
Number only, in %; omit the unit.

Qu. Quick one: inhibition at 1 µM of Cn1cnc2c(F)c(Nc3ccc(Br)cc3Cl)c(C(=O)NOCCO)cc21 ?
Ans. -1.28

Qu. Quick one: inhibition at 1 µM of CCN1CCN(c2ccc(Nc3cc(N(C)C(=O)Nc4c(Cl)c(OC)cc(OC)c4Cl)ncn3)cc2)CC1 ?
Ans. 0.707

Qu. Quick one: inhibition at 1 µM of Cn1cnc2c(F)c(Nc3ccc(Br)cc3F)c(C(=O)NOCCO)cc21 ?
Ans. -3.72

Qu. Quick one: inhibition at 1 µM of CN1CCN(c2ccc(C(=O)Nc3n[nH]c4ccc(Cc5cc(F)cc(F)c5)cc34)c(NC3CCOCC3)c2)CC1 ?
Ans. 33

Qu. Quick one: inhibition at 1 µM of C[C@H]1Oc2cc(cnc2N)-c2c(nn(C)c2C#N)CN(C)C(=O)c2ccc(F)cc21 ?
Ans. 11

Qu. Quick one: inhibition at 1 µM of C[C@H](Nc1ncnc2nc[nH]c12)c1cc2cccc(Cl)c2c(=O)n1-c1ccccc1 ?
Ans. 8

Qu. Quick one: inhibition at 1 µM of CCN1C(=O)N(c2c(F)c(OC)cc(OC)c2F)Cc2cnc3[nH]c(CN4CCOCC4)cc3c21 ?
Ans. 4.48

Qu. Quick one: inhibition at 1 µM of FC(F)(F)c1ccc(CNc2ccc(Cc3c[nH]c4ncc(Cl)cc34)cn2)cn1 ?
Ans. 23

----------
Molecular target: UniProtKB Q8N4C8
Sequence (Q8N4C8 whole entry): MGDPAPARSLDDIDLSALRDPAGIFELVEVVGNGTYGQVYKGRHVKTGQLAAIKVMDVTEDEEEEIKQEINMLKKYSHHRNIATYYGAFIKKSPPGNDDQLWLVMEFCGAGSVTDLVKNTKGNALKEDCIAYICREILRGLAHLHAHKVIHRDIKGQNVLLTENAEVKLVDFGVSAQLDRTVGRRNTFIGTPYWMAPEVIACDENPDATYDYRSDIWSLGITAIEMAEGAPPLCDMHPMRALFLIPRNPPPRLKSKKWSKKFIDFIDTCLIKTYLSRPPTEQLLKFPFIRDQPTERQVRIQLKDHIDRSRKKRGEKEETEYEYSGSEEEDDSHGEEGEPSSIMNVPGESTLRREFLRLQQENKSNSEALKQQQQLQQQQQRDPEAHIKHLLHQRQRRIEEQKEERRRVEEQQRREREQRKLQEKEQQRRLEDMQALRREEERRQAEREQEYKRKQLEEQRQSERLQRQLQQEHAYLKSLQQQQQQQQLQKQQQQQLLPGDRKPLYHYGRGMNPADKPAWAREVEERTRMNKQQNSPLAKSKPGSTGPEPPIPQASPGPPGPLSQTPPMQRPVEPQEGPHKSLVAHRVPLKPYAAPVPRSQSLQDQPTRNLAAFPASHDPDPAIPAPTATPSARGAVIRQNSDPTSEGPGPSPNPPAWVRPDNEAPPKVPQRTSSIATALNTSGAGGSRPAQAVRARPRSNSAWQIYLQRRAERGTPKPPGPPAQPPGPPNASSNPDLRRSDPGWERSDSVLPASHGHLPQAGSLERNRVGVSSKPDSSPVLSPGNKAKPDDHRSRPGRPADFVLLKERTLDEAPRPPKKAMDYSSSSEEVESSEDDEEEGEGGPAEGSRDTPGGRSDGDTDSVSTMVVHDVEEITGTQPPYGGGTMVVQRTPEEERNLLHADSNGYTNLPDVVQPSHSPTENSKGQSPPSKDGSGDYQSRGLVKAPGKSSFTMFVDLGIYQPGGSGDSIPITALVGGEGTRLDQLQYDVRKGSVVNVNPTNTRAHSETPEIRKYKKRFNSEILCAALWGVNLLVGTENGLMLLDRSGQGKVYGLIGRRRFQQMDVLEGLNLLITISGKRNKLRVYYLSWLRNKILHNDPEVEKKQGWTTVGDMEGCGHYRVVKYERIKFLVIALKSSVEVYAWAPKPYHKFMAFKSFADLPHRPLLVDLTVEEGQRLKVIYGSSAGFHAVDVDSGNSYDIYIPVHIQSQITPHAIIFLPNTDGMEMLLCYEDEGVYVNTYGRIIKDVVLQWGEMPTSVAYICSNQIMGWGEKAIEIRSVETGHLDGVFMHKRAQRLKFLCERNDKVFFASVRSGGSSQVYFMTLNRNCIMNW
Assay: Kinase panel profiling at 1 µmol/L (MSA or IMAP), percentage inhibition
Assay type: biochemical
Details: MINK; 1 µmol/L single concentration; read-out: %-inhibition, MINK
Quantity name: inhibition at 1 µM
Form field: result (number plus unit)

Qu. Quick one: inhibition at 1 µM of Cc1cc(Nc2ncnc3ccc(NC4=NC(C)(C)CO4)cc23)ccc1Oc1ccn2ncnc2c1 ?
Ans. -4.35%

Qu. Quick one: inhibition at 1 µM of Cn1cnc2c(F)c(Nc3ccc(Br)cc3Cl)c(C(=O)NOCCO)cc21 ?
Ans. -4.5%

Qu. Quick one: inhibition at 1 µM of COC(=O)N[C@@H](C)CNc1nccc(-c2cn(C(C)C)nc2-c2cc(Cl)cc(NS(C)(=O)=O)c2F)n1 ?
Ans. 1.29%

Qu. Quick one: inhibition at 1 µM of COc1cc2ncnc(Nc3ccc(F)c(Cl)c3)c2cc1NC(=O)/C=C/CN1CCCCC1 ?
Ans. 7.37%

----------
Task for the reader: assign each of the following molecules its reported pIC50.
System: 134 cancer cell lines
Experiment: Cell viability assay (ATPlite, 72 hours), IC50 on cancer cell line panel
Conditions: Homo sapiens, SW872, read-out: IC50 in cell proliferation assay
Scale for pIC50: -log10 of concentration given in mol/L; no unit attached.

Qu. Value wanted: pIC50 (134 cancer cell lines) of entry C[C@H]1Oc2cc(cnc2N)-c2c(nn(C)c2C#N)CN(C)C(=O)c2ccc(F)cc21
Ans. 5.18

Qu. Value wanted: pIC50 (134 cancer cell lines) of entry C[C@@H](Oc1cc(-c2cnn(C3CCNCC3)c2)cnc1N)c1c(Cl)ccc(F)c1Cl
Ans. 5.65

----------
Target: panel of 255 wild-type kinases (Homo sapiens)
Experiment: Kinase panel profiling at 1 µmol/L (MSA or IMAP), percentage inhibition
Format: biochemical
Conditions: kinase PIM3; 1 µmol/L single concentration; read-out: %-inhibition at 1 µmol/L, PIM3
Quantity name: inhibition at 1 µM (%)
Number only, in %; omit the unit.

Qu. Quick one: inhibition at 1 µM of CCn1c(=O)c(-c2cc(NC(=O)Nc3ccccc3)c(F)cc2Br)cc2cnc(NC)cc21 ?
Ans. 1.11

Qu. Quick one: inhibition at 1 µM of FC(F)(F)c1ccc(CNc2ccc(Cc3c[nH]c4ncc(Cl)cc34)cn2)cn1 ?
Ans. 4.68

Qu. Quick one: inhibition at 1 µM of COc1cc2ncnc(Nc3ccc(F)c(Cl)c3)c2cc1NC(=O)/C=C/CN1CCCCC1 ?
Ans. 23

Qu. Quick one: inhibition at 1 µM of Cc1nc(NC(=O)N2CCC[C@H]2C(N)=O)sc1-c1ccnc(C(C)(C)C(F)(F)F)c1 ?
Ans. -13

Qu. Quick one: inhibition at 1 µM of O=C(Nc1cnn2ccc(N3CCC[C@@H]3c3cc(F)ccc3F)nc12)N1CC[C@H](O)C1 ?
Ans. -5.31

Qu. Quick one: inhibition at 1 µM of Cn1cnc2c(F)c(Nc3ccc(Br)cc3Cl)c(C(=O)NOCCO)cc21 ?
Ans. -0.0221

Qu. Quick one: inhibition at 1 µM of C=CC(=O)N1CCC([C@@H]2CCNc3c(C(N)=O)c(-c4ccc(Oc5ccccc5)cc4)nn32)CC1 ?
Ans. -8

Qu. Quick one: inhibition at 1 µM of CCc1nc(C(N)=O)c(Nc2ccc(N3CCC(N4CCN(C)CC4)CC3)c(OC)c2)nc1NC1CCOCC1 ?
Ans. 23

----------
Biological target: UniProt P53355
Sequence (P53355 whole entry): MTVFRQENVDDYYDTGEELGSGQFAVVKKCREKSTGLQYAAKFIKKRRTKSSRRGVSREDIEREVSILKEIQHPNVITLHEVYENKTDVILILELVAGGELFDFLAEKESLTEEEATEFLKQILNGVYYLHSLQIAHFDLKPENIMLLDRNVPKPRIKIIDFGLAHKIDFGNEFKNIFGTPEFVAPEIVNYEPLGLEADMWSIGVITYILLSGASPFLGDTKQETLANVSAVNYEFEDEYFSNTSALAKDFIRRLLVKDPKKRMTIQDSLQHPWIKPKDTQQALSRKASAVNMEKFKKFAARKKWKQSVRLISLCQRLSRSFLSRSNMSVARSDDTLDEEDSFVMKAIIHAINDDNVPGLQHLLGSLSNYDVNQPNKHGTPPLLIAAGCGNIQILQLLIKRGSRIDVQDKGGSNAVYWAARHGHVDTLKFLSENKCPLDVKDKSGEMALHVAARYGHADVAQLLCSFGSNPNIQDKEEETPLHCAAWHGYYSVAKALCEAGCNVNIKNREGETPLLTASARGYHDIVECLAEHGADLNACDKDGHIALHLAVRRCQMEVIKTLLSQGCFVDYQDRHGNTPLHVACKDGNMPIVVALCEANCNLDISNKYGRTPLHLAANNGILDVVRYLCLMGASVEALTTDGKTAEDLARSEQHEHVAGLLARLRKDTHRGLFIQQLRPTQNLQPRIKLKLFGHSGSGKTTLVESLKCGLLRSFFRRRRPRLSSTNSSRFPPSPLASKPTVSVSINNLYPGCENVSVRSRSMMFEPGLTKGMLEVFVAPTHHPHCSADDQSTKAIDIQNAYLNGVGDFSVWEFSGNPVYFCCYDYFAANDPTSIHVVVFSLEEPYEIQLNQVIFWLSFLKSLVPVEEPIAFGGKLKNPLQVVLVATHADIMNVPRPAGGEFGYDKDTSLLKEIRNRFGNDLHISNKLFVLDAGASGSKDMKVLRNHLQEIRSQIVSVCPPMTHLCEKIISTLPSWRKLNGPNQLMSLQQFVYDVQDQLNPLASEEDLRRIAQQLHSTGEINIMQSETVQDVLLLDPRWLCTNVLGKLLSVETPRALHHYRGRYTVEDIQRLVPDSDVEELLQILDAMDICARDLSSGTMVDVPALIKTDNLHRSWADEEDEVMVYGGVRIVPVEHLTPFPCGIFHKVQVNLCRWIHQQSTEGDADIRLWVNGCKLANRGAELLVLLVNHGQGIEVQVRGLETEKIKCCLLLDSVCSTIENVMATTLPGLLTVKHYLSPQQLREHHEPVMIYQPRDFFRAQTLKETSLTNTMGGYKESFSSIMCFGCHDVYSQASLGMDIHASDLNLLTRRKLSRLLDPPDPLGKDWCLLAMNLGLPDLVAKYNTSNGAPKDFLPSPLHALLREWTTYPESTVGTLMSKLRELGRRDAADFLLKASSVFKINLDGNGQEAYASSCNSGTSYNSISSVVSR
Assay: Kinase panel profiling at 1 µmol/L (MSA or IMAP), percentage inhibition
Format: biochemical
Settings: kinase DAPK1; 1 µmol/L single concentration; read-out: %-inhibition at 1 µmol/L, DAPK1
Task for the reader: assign each of the following compounds its reported inhibition at 1 µM.
Form field: result (number plus unit)

Qu. Quick one: inhibition at 1 µM of COC(=O)N[C@@H](C)CNc1nccc(-c2cn(C(C)C)nc2-c2cc(Cl)cc(NS(C)(=O)=O)c2F)n1 ?
Ans. -1%

Qu. Quick one: inhibition at 1 µM of CCN1C(=O)N(c2c(F)c(OC)cc(OC)c2F)Cc2cnc3[nH]c(CN4CCOCC4)cc3c21 ?
Ans. -4.25%

Qu. Quick one: inhibition at 1 µM of O=C(Nc1cnn2ccc(N3CCC[C@@H]3c3cc(F)ccc3F)nc12)N1CC[C@H](O)C1 ?
Ans. -4%

Qu. Quick one: inhibition at 1 µM of COc1ccc(CN2C3CC2CN(c2ccc(-c4cc(OCC(C)(C)O)cn5ncc(C#N)c45)cn2)C3)cn1 ?
Ans. 26%

Qu. Quick one: inhibition at 1 µM of CCc1nc(C(N)=O)c(Nc2ccc(N3CCC(N4CCN(C)CC4)CC3)c(OC)c2)nc1NC1CCOCC1 ?
Ans. 71%

Qu. Quick one: inhibition at 1 µM of CCN1CCN(c2ccc(Nc3cc(N(C)C(=O)Nc4c(Cl)c(OC)cc(OC)c4Cl)ncn3)cc2)CC1 ?
Ans. -3%

Qu. Quick one: inhibition at 1 µM of COc1cc2ncnc(Nc3ccc(F)c(Cl)c3)c2cc1NC(=O)/C=C/CN1CCCCC1 ?
Ans. -7%
